molecular target: Cannabinoid receptor 1 (Rattus norvegicus)
Sequence (P20272 whole entry): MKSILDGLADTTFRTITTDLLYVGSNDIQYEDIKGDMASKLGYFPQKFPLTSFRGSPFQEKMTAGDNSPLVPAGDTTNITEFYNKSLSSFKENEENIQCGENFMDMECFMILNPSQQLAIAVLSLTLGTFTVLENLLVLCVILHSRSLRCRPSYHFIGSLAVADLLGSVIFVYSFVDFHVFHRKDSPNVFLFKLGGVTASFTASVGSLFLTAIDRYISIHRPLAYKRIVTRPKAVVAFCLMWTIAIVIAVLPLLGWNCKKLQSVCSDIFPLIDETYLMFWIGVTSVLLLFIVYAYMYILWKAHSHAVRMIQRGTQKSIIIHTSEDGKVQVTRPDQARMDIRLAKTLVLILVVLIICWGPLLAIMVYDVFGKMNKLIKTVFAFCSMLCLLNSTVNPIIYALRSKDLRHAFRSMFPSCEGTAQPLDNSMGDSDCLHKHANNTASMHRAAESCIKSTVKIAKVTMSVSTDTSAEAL

Compound	Censoring sign	Ki [µM]
CCCCCCCC/C=C\CCCCCCCC(=O)N[C@@H](C)CO	>	10
CCCCC/C=C\C/C=C\C/C=C\C/C=C\CCCC(=O)NC[C@@H](C)O	=	0.119
CCCCCCCC/C=C\CCCCCCCC(=O)NCCO [OLEOYLETHANOLAMIDE]	>	10
CCCCC/C=C\C/C=C\C/C=C\C/C=C\CCCC(=O)NC[C@H](C)O	=	0.026
CCCCC/C=C\C/C=C\C/C=C\C/C=C\CCCC(N)=O [ARACHIDONAMIDE]	=	9.6

* * *

pKi: −log10 of the molar value.
UniProtKB P20272 pKi data

Compound	Censoring sign	pKi
CCCCCCCCCCCCCCCCCC(=O)NCCO [N-(2-HYDROXYETHYL)STEARAMIDE]	=	6.66
CCCCC/C=C\C/C=C\C/C=C\C/C=C\CCCC(=O)Nc1ccc(CO)cc1	<	5.52
CCCCC/C=C\C/C=C\C/C=C\C/C=C\CCCC(=O)NCCF	=	8.07
CCCCC/C=C\C/C=C\CCCCCCCC(=O)N[C@@H](C)CO	<	5.00
CCCCC/C=C\C/C=C\C/C=C\C/C=C\CCCC(=O)N(C)CCO	=	5.30
CCCCC/C=C\C/C=C\C/C=C\C/C=C\CCCC(=O)NC(C)(C)CO	=	6.82
CCCCC/C=C\C/C=C\C/C=C\C/C=C\CCC(C)(C)C(=O)NCCO	=	7.14
CCCCC/C=C\C/C=C\C/C=C\C/C=C\CCCC(=O)NC1CCC(O)CC1 (stereo not drawn)	=	6.66
